Reference source for all entries: PubChem BioAssay (NCI)

# Tested on: OVCAR-4 ovarian
# ASSAY METHOD TEXT: NCI tumour cell line growth inhibition, 48 h
# key: entry, value: GI50

Example entries begin here.
{"COMPOUND": "Cn1cnc(SC2=CC(=O)C=C3S[C@H]4C[C@@]23c2c(c(O)c3c5c2=NCCC=5C=N3)N4)c1CC(N)C(=O)O (some centres undefined)", "REPORTED": "13.4 µM"}
{"COMPOUND": "CC(=O)CCc1ccc(Oc2c3ccccc3nc3occc23)cc1", "REPORTED": "37.6 µM"}
{"COMPOUND": "O=c1cc(-c2ccccc2)oc2c(O)c(O)ccc12", "REPORTED": "3.73 µM"}
{"COMPOUND": "COc1ccc(-c2oc3ncnc(N)c3c2-c2ccc(NC(=O)Nc3cc(C(F)(F)F)ccc3F)cc2)cc1", "REPORTED": "1.05 µM"}
{"COMPOUND": "COC(=O)[C@@H](C)C[C@H](Cc1ccc(F)cc1)NC(=O)c1csc([C@@H](C[C@H](C(C)C)N(C)C(=O)[C@@H](NC(=O)[C@H]2CCCCN2C)C2CC2)OC(C)=O)n1", "REPORTED": "2.37 µM"}
{"COMPOUND": "Cc1cccc2c(=O)c3c(sc12)c(NCCCN)nc1ccccc13", "REPORTED": "1.58 µM"}
{"COMPOUND": "COc1cc(-c2n/c(=C\\c3c(O)[nH]c4ccccc34)cc3c2=Nc2ccccc2-3)ccc1F", "REPORTED": "2.32 µM"}
{"COMPOUND": "CO[C@H]1/C=C/O[C@@]2(C)Oc3c(C)c(O)c4c(O)c(c(/C=N/N5C(C)CN(Cc6ccc(C#N)cc6)CC5C)c(O)c4c3C2=O)NC(=O)/C(C)=C\\C=C\\[C@H](C)[C@H](O)[C@@H](C)[C@@H](O)[C@@H](C)[C@H](OC(C)=O)[C@@H]1C (some centres undefined)", "REPORTED": "7.49 µM"}

The record that follows has no GI50 shown yet.
Note to self: GI50 recorded for [Mn+3].[O-][Cl+3]([O-])([O-])O.[O-]c1ccccc1C=NCCN1CC1.[O-]c1ccccc1C=NCCN1CC1 was 15.4 µM
